The reported numbers originate from ChEMBL document CHEMBL4665701.

- Assay procedure: Drug level in rat hepatocytes assessed as compound abundance level at 10 uM incubated for 4 hrs by UV chromatography
- Type: ADME, cell-based, Hepatocyte
Property name: Drug uptake

compound=Cc1nc(C)c(C(=O)Nc2ccc(F)c(-c3nc4ncc(-c5ncccc5CO)cn4n3)c2)o1 property_name="Drug uptake" result="<= 25%"
compound=Cc1nc(CO)c(C(=O)Nc2ccc(F)c(-c3nc4ncc(-c5ncccc5C)cn4n3)c2)o1 property_name="Drug uptake" result="<= 25%"
compound="Cc1nc(C)c(C(=O)Nc2ccc(F)c(-c3nc4ncc(-c5ncccc5C)cn4n3)c2)o1 [LXE-408]" property_name="Drug uptake" result="> 75%"
compound=Cc1cccnc1-c1cnc2nc(-c3cc(NC(=O)c4oc(CO)nc4C)ccc3F)nn2c1 property_name="Drug uptake" result="<= 25%"

* * *

- Assay procedure: Drug level in human hepatocytes assessed as compound abundance level at 10 uM incubated for 4 hrs by UV chromatography
- Type: ADME, cell-based, Hepatocyte
Property name: Drug uptake

compound_smiles=Cc1nc(C)c(C(=O)Nc2ccc(F)c(-c3nc4ncc(-c5ncccc5CO)cn4n3)c2)o1 result="<= 25%"
compound_smiles=Cc1nc(CO)c(C(=O)Nc2ccc(F)c(-c3nc4ncc(-c5ncccc5C)cn4n3)c2)o1 result="<= 25%"
compound_smiles=Cc1cccnc1-c1cnc2nc(-c3cc(NC(=O)c4oc(CO)nc4C)ccc3F)nn2c1 result="<= 25%"
compound_smiles=Cc1nc(C)c(C(=O)Nc2ccc(F)c(-c3nc4ncc(-c5ncccc5C)cn4n3)c2)o1 result="> 75%"

* * *

- Assay procedure: in vitro
- Experimental context: rat, liver microsomes
- Description: Metabolic stability in rat liver microsomes assessed as hepatic extraction ratio after 1 hr by LC-MS/MS analysis
Property name: hepatic extraction ratio at 1 h

compound_smiles=Cc1nc(C)c(C(=O)Nc2ccc(F)c(-c3nc4ncc(-c5ncccc5C(F)F)cn4n3)c2)o1 result="< 0.18"

* * *

- Assay procedure: in vitro
- Experimental context: mouse, liver microsomes
- Description: Metabolic stability in mouse liver microsomes assessed as hepatic extraction ratio after 1 hr by LC-MS/MS analysis
Property name: hepatic extraction ratio at 1 h

compound_smiles=Cc1nc(C)c(C(=O)Nc2ccc(F)c(-c3nc4ncc(-c5ncccc5Cl)cn4n3)c2)o1 result="< 0.21"

* * *

- Assay procedure: Drug level in dog hepatocytes assessed as compound abundance level at 10 uM incubated for 4 hrs by UV chromatography
- Type: ADME, cell-based, Canis lupus familiaris, Hepatocyte
Property name: Drug uptake

compound_smiles=Cc1nc(CO)c(C(=O)Nc2ccc(F)c(-c3nc4ncc(-c5ncccc5C)cn4n3)c2)o1 result="<= 25%"
compound_smiles=Cc1nc(C)c(C(=O)Nc2ccc(F)c(-c3nc4ncc(-c5ncccc5CO)cn4n3)c2)o1 result="<= 25%"
compound_smiles=Cc1cccnc1-c1cnc2nc(-c3cc(NC(=O)c4oc(CO)nc4C)ccc3F)nn2c1 result=25%
compound_smiles=Cc1nc(C)c(C(=O)Nc2ccc(F)c(-c3nc4ncc(-c5ncccc5C)cn4n3)c2)o1 result="> 75%"

* * *

- Assay procedure: Drug level in monkey hepatocytes assessed as compound abundance level at 10 uM incubated for 4 hrs by UV chromatography
- Assay type: ADME, cell-based, Macaca mulatta, Hepatocyte
- Experimental context: rhesus monkey
Property name: Drug uptake

compound_smiles=Cc1cccnc1-c1cnc2nc(-c3cc(NC(=O)c4oc(CO)nc4C)ccc3F)nn2c1 property_name="Drug uptake" result="<= 25%"
compound_smiles=Cc1nc(CO)c(C(=O)Nc2ccc(F)c(-c3nc4ncc(-c5ncccc5C)cn4n3)c2)o1 property_name="Drug uptake" result="<= 25%"
compound_smiles=Cc1nc(C)c(C(=O)Nc2ccc(F)c(-c3nc4ncc(-c5ncccc5C)cn4n3)c2)o1 property_name="Drug uptake" result="> 75%"
compound_smiles=Cc1nc(C)c(C(=O)Nc2ccc(F)c(-c3nc4ncc(-c5ncccc5CO)cn4n3)c2)o1 property_name="Drug uptake" result="<= 25%"
